Target: 348 GPCRs (Homo sapiens, UniProt P30939)
Construct: expressed in transfected cells; host or cells: HEK293A
Sequence (P30939 1-366): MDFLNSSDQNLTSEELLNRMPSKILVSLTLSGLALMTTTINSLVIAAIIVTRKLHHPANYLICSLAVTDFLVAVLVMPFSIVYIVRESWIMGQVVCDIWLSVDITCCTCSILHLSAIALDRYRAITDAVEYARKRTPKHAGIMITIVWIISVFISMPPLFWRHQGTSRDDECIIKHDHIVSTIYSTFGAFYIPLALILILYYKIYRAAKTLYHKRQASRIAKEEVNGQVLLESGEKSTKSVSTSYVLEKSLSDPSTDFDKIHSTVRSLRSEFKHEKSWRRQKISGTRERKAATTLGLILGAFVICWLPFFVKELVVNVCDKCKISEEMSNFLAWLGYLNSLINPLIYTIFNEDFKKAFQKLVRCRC
Assay: TGFα-shedding assay-based GPCR screening with chimeric Gα subunit proteins
Format: cell-based
Conditions: 5-HT1F (5-hydroxytryptamine receptor 1F); 10µM, Favipiravir 100μM
Value type: % GPCR activation compared to TPA (%)
Give the quantity in %, number only.

Recall the reported % GPCR activation compared to TPA of CC(C)C(=O)OC[C@H]1O[C@@H](n2ccc(NO)nc2=O)[C@H](O)[C@@H]1O when tested on 348 GPCRs (Homo sapiens, UniProt P30939).
0.7188

Recall the reported % GPCR activation compared to TPA of CC(C)OC(=O)[C@H](C)N[P@](=O)(OC[C@H]1O[C@@H](n2ccc(=O)[nH]c2=O)[C@](C)(F)[C@@H]1O)Oc1ccccc1 when tested on 348 GPCRs (Homo sapiens, UniProt P30939).
-0.8157

Recall the reported % GPCR activation compared to TPA of NC(=O)c1nc(F)cnc1O [favipiravir, 6-fluoro-3-hydroxy-2-pyrazinecarboxamide] when tested on 348 GPCRs (Homo sapiens, UniProt P30939).
1.629

Recall the reported % GPCR activation compared to TPA of N#C[C@@]1(c2ccc3c(N)ncnn23)O[C@H](CO)[C@@H](O)[C@H]1O when tested on 348 GPCRs (Homo sapiens, UniProt P30939).
0.3563

Recall the reported % GPCR activation compared to TPA of CCC(CC)COC(=O)[C@H](C)N[P@](=O)(OC[C@H]1O[C@@](C#N)(c2ccc3c(N)ncnn23)[C@H](O)[C@@H]1O)Oc1ccccc1 when tested on 348 GPCRs (Homo sapiens, UniProt P30939).
-2.148
